Data origin, for the record: paper PMC6017328

Tested on: T. cruzi epimastigotes (CL Brener stain)
Assay: T. cruzi culturing and evaluation of trypanocidal activity (resazurin)
Type: cell-based
Details: Trypanosoma cruzi

Smiles entry	Measurement unit	Comparative sign	EC50
COc1ccc(-n2c[n+](-c3ccc(OC)cc3)c(Cc3ccccc3)c2-c2ccc(C)cc2)cc1	µM	=	0.44
Cc1ccc(-n2c[n+](CC(=O)[O-])c(Cc3ccccc3)c2-c2ccccc2)cc1	µM	>	20
Cc1ccc(-n2c[n+](C(C)(C)C)c(Cc3ccccc3)c2-c2ccccc2)cc1	µM	=	1.85
Cc1ccc(-n2c[n+](-c3ccc4ccccc4c3)c(Cc3ccccc3)c2-c2ccc(Cl)cc2)cc1	µM	=	0.54
COc1ccc(-n2c[n+](C(C)(C)C)c(Cc3ccc(C)cc3)c2-c2ccc(Cl)cc2)cc1	µM	=	1.72
